Test system: T1, Cbf5 wild type;Nop10;Gar1 (in complex) (Pyrococcus furiosus;Pyrococcus …, UniProt Q7LWY0;Q8U1R4;Q8U029 1-340;1-60;=MG+2-104, ||internal_change)
T1 sequence 1: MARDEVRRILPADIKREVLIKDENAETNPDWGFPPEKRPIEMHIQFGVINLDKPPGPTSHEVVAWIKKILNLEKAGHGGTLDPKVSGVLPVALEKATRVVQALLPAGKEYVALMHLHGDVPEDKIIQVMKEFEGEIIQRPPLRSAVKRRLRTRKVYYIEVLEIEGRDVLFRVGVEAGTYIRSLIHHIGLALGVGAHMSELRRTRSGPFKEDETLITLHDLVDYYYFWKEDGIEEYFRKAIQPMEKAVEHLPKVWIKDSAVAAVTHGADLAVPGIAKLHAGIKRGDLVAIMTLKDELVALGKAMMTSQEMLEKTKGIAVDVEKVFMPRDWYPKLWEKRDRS
T1 sequence 2: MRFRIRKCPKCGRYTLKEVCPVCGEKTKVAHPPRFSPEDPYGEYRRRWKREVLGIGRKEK
T1 sequence 3: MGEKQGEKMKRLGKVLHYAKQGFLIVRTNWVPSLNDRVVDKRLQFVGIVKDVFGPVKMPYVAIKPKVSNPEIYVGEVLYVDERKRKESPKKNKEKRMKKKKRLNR
Assay overview: filter binding
pKd: −log10 of the molar value.
Quantity kind: pKd

1. H/ACA guide RNA Pf4 (structured_RNA) RNA: AAUGCCCCUCCCCUCUCACACCCCCGUGAGAAGUGAGCGGGGGGCGGUCGGGGAGGGGACAUCA    7.68
